# solubility per record follows
assay: Solubility of compound in pure water; format: physicochemical
Supply the numeric figure in µg/mL, leaving out any unit text.

Recorded results for 3 compounds are shown here.
N[C@@H](Cc1cn(-c2nc(Cl)nc(N3CCOCC3)n2)c2ccccc12)C(=O)O: 5810
O=C1COCCN1c1ccc(Nc2nc(Cl)nc(N3CCCC3)n2)cc1: 4910
COC(=O)[C@@H](N)Cc1cn(-c2nc(Cl)nc(N3CCCCC3)n2)c2ccccc12: 740

What solubility value was documented for this compound, COC(=O)[C@@H](N)Cc1cn(-c2nc(Cl)nc(Nc3ccc(N4CCOCC4=O)cc3)n2)c2ccccc12 ?
30

// provenance: ChEMBL document CHEMBL4610009
